assayed-system: Retinoic acid receptor RXR-gamma (Homo sapiens) (UniProt P48443)
Sequence (P48443 whole entry, the tested form may be a part): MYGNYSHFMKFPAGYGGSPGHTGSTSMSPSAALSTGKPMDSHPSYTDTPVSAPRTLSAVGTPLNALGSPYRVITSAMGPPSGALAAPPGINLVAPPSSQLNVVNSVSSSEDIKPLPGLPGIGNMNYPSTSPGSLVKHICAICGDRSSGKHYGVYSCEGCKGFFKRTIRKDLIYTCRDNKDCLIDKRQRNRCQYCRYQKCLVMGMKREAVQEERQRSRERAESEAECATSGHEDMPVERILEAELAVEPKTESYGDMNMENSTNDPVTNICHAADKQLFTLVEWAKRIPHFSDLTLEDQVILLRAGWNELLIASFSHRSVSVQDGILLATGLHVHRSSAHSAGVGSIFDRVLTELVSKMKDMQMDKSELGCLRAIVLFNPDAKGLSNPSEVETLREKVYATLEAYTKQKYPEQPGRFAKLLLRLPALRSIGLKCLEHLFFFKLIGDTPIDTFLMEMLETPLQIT
experiment: Agonist activity at human Gal4-DBD fused RXRgamma LBD expressed in HEK293T cells after 12 to 14 hrs by luciferase reporter gene assay relative to bexarotene
Assay type: cell-based
recorded-endpoint: Emax (%)

O=C(O)c1ccc(COc2ccccc2C(F)(F)F)cc1 = 52
CC(C)(C)c1ccccc1OCc1ccc(C(=O)O)cc1 = 21

(a) Cc1ccccc1OCc1ccc(C(=O)O)cc1
(b) O=C(O)c1ccc(COc2cccc(Cl)c2)cc1
Query block: Lab notebook, comparison: a versus b , higher Emax goes to which? In your reply, give the label of the chosen option.
Result block: a
(a: 19%, b: 9.3%)

---

assayed-system: Retinoic acid receptor RXR-alpha (Homo sapiens, UniProt P19793)
Sequence (P19793 whole entry, the tested form may be a part): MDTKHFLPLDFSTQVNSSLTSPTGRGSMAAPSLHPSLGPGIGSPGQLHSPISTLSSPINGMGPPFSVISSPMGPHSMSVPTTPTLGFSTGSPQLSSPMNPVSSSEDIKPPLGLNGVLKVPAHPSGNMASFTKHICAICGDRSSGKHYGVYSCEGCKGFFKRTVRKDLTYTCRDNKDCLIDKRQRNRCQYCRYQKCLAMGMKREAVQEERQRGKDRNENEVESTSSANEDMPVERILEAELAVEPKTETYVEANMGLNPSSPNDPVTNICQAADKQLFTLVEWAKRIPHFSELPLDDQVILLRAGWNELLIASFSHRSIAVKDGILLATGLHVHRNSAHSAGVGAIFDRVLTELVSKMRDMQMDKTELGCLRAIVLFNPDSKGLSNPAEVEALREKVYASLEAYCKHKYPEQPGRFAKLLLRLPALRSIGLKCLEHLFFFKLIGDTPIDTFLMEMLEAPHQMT
experiment: Agonist activity at human Gal4-DBD fused RXRalpha LBD expressed in HEK293T cells after 12 to 14 hrs by luciferase reporter gene assay
Format: cell-based
measurement-parameters: read-out: EC50
recorded-endpoint: EC50 (nM)

CC(C)(C)c1ccccc1OCc1ccc(C(=O)O)cc1 = 160

(A) O=C(O)c1ccc(COc2ccccc2-c2ccccc2)cc1
(B) Cc1ccccc1OCc1ccc(C(=O)O)cc1
Query block: Pick one: A or B . Which one has the lower reported EC50? Mark your answer with the label of the selected entry.
Result block: A

---

assayed-system: Retinoic acid receptor RXR-beta (Homo sapiens)
Sequence (whole entry): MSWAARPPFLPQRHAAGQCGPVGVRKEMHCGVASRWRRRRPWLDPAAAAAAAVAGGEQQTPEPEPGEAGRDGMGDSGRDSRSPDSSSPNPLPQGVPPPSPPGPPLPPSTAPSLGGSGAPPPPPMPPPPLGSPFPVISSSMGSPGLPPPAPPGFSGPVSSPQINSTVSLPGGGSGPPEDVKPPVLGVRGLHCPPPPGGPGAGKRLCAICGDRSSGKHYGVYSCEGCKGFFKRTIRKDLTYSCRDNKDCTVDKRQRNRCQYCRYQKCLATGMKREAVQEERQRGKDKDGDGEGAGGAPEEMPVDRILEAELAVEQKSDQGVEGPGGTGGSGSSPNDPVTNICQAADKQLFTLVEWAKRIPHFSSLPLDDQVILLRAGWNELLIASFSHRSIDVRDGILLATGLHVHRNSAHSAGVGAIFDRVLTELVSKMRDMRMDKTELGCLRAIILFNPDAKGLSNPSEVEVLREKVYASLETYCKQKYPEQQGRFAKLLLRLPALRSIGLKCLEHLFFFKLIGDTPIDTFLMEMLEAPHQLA
experiment: Agonist activity at human Gal4-DBD fused RXRbeta LBD expressed in HEK293T cells after 12 to 14 hrs by luciferase reporter gene assay relative to bexarotene
Assay type: cell-based
recorded-endpoint: Emax (%)

Check out these entries, answers already filled in.
O=C(O)c1ccc(COc2cccc(Cl)c2)cc1 = 26
O=C(O)c1ccc(COc2ccc3c(c2)CCC3)cc1 = 28
O=C(O)Cc1ccc(COc2ccc3c(c2)CCC3)cc1 = 9.9
CC(C)(C)c1ccc(OCc2ccc(C(=O)O)cc2)cc1 = 15
Cc1ccccc1OCc1ccc(C(=O)O)cc1 = 27

(1) O=C(O)c1ccc(COc2ccc(I)cc2)cc1
(2) O=C(O)c1ccc(COc2ccc(C(F)(F)F)cc2C(F)(F)F)cc1
Query block: Smaller Emax value? Options are 1 and 2 Field: selected label. Fill in the label of the entry you choose.
Result block: 1

(1) O=C(O)c1ccc(COc2ccccc2OC(F)(F)F)cc1
(2) O=C(O)c1ccc(COc2ccc(Br)cc2)cc1
Query block: // compare measured Emax between 1 and 2 ; output the lower one Give the chosen item's label as your response.
Result block: 1
(1: 18%, 2: 36%)

(a) O=C(O)c1ccc(OCc2cccc(Cl)c2)cc1
(b) CN(Cc1ccc(C(=O)O)cc1)c1ccc2c(c1)CCC2
Query block: Between a and b , which one has the lower reported Emax value? Refer to your chosen entry by its label in the reply.
Result block: b

(a) O=C(O)c1ccc(OCc2ccc3c(c2)CCC3)cc1
(b) CC(C)(C)c1ccc(OCc2ccc(C(=O)O)cc2)c(Cl)c1
Query block: Sorting ascending by Emax, which comes first: a or b ? Pick one and reply with its label.
Result block: a
(a: 25%, b: 36%)

(A) O=C(O)c1ccc(COc2ccccc2-c2ccccc2)cc1
(B) CC(C)c1ccc(OCc2ccc(C(=O)O)cc2)cc1
Query block: Hi, I'm comparing A with B and wondering which one has the bigger number for Emax. Any idea? Mark your answer with the label of the selected entry.
Result block: A

(A) O=C(O)c1ccc(COc2ccccc2Cl)cc1
(B) CCc1ccc(OCc2ccc(C(=O)O)cc2)cc1
Query block: Between A and B , which one has the lower reported Emax value? Lab log: write the label of the selected item as the result.
Result block: B

(a) O=C(O)CCc1ccc(COc2ccc3c(c2)CCC3)cc1
(b) CC(C)(C)c1ccccc1OCc1ccc(C(=O)O)cc1
Query block: Which has the higher Emax, a or b ? Answer by stating the label of the chosen item.
Result block: a
(a: 29%, b: 12%)
